System: MALME-3M melanoma
MEASUREMENT PROTOCOL: NCI-60 one-dose screen, 48 h
CONDITION INFO: 10 µM unless noted
About 83,000 compounds went through this panel and 20% of them were active in at least one assay; those are over-represented in the sample as a whole. The source made the active and inactive calls. How the source made its calls: active means growth percent below 10; inactive means the rest.
Labels: true for active, false for inactive

| COMPOUND | ANSWER LABEL |
| --- | --- |
| CCSc1ccc2c(c1)N(CCCN1CCN(C)CC1)c1ccccc1S2 | true |
| Clc1ccc(C2CC(c3cccc(Nc4ccncc4)c3)=NN2c2ccccc2)cc1 (stereo unspecified) | true |
| CC1(C)CC[C@]2(C(=O)NCC#CCN3CCOCC3)CC[C@]3(C)C(=CC[C@@H]4[C@@]5(C)Cc6c([nH]c7ccccc67)C(C)(C)[C@@H]5CC[C@]43C)[C@@H]2C1 | false |
| COc1cc2nc(-c3ccc(C(F)(F)F)cc3)cc(OCCN3CCC(O)CC3)c2cc1OC | false |
| CC(C)(C)CC(C)(C)Nc1c(-c2ccc3c(c2)OCO3)nc2cnccn12 | false |
| Clc1ccc(N2N=C(c3cccc(Nc4ccncc4)c3)CC2c2ccc3c(c2)OCO3)cc1 (stereo unspecified) | false |
| CSc1nnc2c(=O)n(C)c(=O)n(C)c2n1 | false |
| C=C(C)[C@@H]1CC[C@]2(C(=O)O)CC[C@]3(C)[C@H](CC[C@@H]4[C@@]5(C)C[C@@H](CC#Cc6ccc(Br)cc6)C(=O)C(C)(C)[C@@H]5CC[C@]43C)[C@@H]12 | true |
| C=C(C)[C@@H]1CC[C@]2(C=O)CC[C@]3(C)[C@H](CC[C@@H]4[C@@]5(C)CCCNC(C)(C)[C@@H]5CC[C@]43C)[C@@H]12 | false |
| Cc1ccc(C(=O)Nc2ccccc2C(=O)N/N=C(\c2ccccc2)c2ccccn2)cc1 | false |
| Nc1nnc2cc(Cl)ccc2n1 | false |
| CC1(C)CN(Cc2ccccc2)CCN1Cc1ccccc1 | false |
| CN(C)C(=O)OCc1nc2c(N3CCOCC3)nc(-c3ccccc3)nc2n1C | true |
| COc1ccc(NC(=O)c2sc3nc(C)c(C(=O)c4ccc(OC)cc4)cc3c2N)cc1 | false |
| c1ccc(-c2nn(-c3ccccc3)[n+](-c3cccc4ccccc34)n2)cc1 | true |
| C=C(C)[C@@H]1CC[C@]2(C(=O)NCC(=O)OC)CC[C@]3(C)[C@H](CC[C@@H]4[C@@]5(C)Cc6c([nH]c7ccccc67)C(C)(C)[C@@H]5CC[C@]43C)[C@@H]12 | false |
